# Tested on: MDA-MB-231 tumor cells expressing PD-L1
# method_description: Rescue of mouse splenocyte proliferation inhibited by MDA-MB-231 tumor cells expressing PD-L1 (CFSE based assay)
# Type: cell-based
# condition_description: % splenocyte proliferation / % background proliferation; background 1.0, stimulated 3.7
Entries and their Fold induction values follow.
Lab note: jot the number down without any unit.

Below, 5 molecules whose answers are already recorded.
INSERT INTO assay_data (molecule, numeric_readout) VALUES
  ('NC(=O)C[C@H](NC(=O)N[C@@H](CC(=O)O)C(=O)O)C(=O)NNC(=O)[C@@H](N)CO [Compound 7]', 2.9),
  ('CC(O)[C@H](NC(=O)N[C@@H](CC(N)=O)C(=O)NNC(=O)[C@@H](N)CO)C(N)=O (some centres unmarked) [Compound 6]', 2.3),
  ('NC(=O)C[C@H](N)C(=O)NNC(=O)[C@@H](N)CO [Compound 1]', 2.8),
  ('CNC(=O)N[C@H](C(=O)N[C@@H](CC(N)=O)C(=O)NNC(=O)[C@@H](N)CO)C(C)O (some centres unmarked) [Compound 18]', 3),
  ('CC(O)[C@H](NC(=O)N[C@H](CC(N)=O)C(=O)NNC(=O)[C@H](N)CO)C(=O)O (some centres unmarked) [Compound 15]', 2.9);

Qu. # Fold induction lookup, item COC[C@H](N)C(=O)NNC(=O)[C@H](CC(N)=O)NC(=O)N[C@H](C(=O)O)C(C)O (some centres unmarked) [Compound 11]
Ans. 2.2

Qu. What value of Fold induction has been recorded for this entry: CCC(C)[C@H](NC(=O)N[C@@H](CC(N)=O)C(=O)NNC(=O)[C@@H](N)CO)C(=O)O (some centres unmarked) [Compound 8]
Ans. 3

Qu. Requested field: Fold induction. Item: CN[C@@H](CO)C(=O)NNC(=O)[C@H](CC(N)=O)NC(=O)N[C@H](C(=O)O)C(C)O (some centres unmarked) [Compound 4]
Ans. 2.8
